Experiment: LD50 in mice
Conditions: mouse, in vivo
Structures can show the parent of a compound that is named as a salt.
Assignment: determine reported LD50 for the given compounds.
# output: number + unit

Q. Quick check: LD50 of CC(CCc1ccc(O)cc1)NCCc1ccc(O)c(O)c1 (racemic) ?
A. 73.2 mg/kg

Q. Quick check: LD50 of CC(Cc1ccc(O)c(O)c1)NCCCc1ccc(O)cc1 (racemic) [hydrobromide] ?
A. 82.7 mg/kg
